tested on: A549 (human lung cancer cells); assay: MTT cancer cell growth inhibition; format: cell-based; conditions: Homo sapiens, A549, 72 h, A549 cells, MTT, 72 hours incubation; read-out: GI50 A54
Recorded GI50 determines the label; the label ranges are lower level = under 30 nM, middle level = from 30 nM up to 50 nM, upper level = 50 nM and over

Category of C/C=C1\NC(=O)c2cc(SC)cc(n2)CNC(=O)C[C@@H](/C=C/CCSC(C)=O)OC(=O)[C@H](CCCCN)NC1=O [Compound 193] , please. middle level

Also check C/C=C1\NC(=O)c2nc(ccc2SCC)CNC(=O)C[C@@H](/C=C/CCSC(=O)CCCCCC)OC(=O)[C@H](C(C)C)NC1=O [Compound 250] middle level

Okay, and C/C=C1\NC(=O)c2ccc(SC)c(n2)CCNC(=O)C[C@@H](/C=C/CCSC(C)=O)OC(=O)[C@H](C(C)C)NC1=O [Compound 225] ? middle level

Same question for C/C=C1\NC(=O)c2ccc(SC)c(n2)CNC(=O)C[C@@H](/C=C/CCSC(=O)CCC)OC(=O)[C@H](C(C)C)NC1=O [Compound 161] please. upper level

Also need C/C=C1\NC(=O)c2ccc(SC)c(n2)CNC(=O)C[C@@H](/C=C/CCSC(C)=O)OC(=O)[C@H](Cc2cccc3ccccc23)NC1=O [Compound 200] , thanks. lower level

Same for C=C1NC(=O)c2cccc(n2)CNC(=O)C[C@@H](/C=C/CCSC(=O)CCCCCCC)OC(=O)[C@H](C(C)C)NC1=O [Compound 244] upper level

Also need CCCCCCCC(=O)SCC/C=C/[C@@H]1CC(=O)NCc2cccc(n2)C(=O)NC(CC)C(=O)N[C@@H](C(C)C)C(=O)O1 (stereo partly shown) [Compound 245] , thanks. upper level

And for C/C=C1\NC(=O)c2cc(SC)cc(n2)CNC(=O)C[C@@H](/C=C/CCSC(=O)CCCC)OC(=O)[C@H](C(C)C)NC1=O [Compound 157] ? lower level

And C/C=C1\NC(=O)c2nc(ccc2SC)CNC(=O)C[C@@H](/C=C/CCSC(C)=O)OC(=O)[C@@H](C)NC1=O [Compound 220] ? middle level

Repeat with C/C=C1\NC(=O)c2ccc(SC)c(n2)CNC(=O)C[C@@H](/C=C/CCSC(=O)CCCCCCC)OC(=O)[C@H](C(C)C)NC1=O [Compound 149] lower level

C/C=C1\NC(=O)c2cc(SC)cc(n2)CNC(=O)C[C@@H](/C=C/CCSC(C)=O)OC(=O)[C@H](C(C)C)NC1=O [Compound 166] , same question. lower level

Try this compound next: C/C=C1\NC(=O)c2cccc(n2)CNC(=O)C[C@@H](/C=C/CCSC(=O)CCCCCCC)OC(=O)[C@H](CSCC)NC1=O [Compound 242] upper level

What would you report for C/C=C1\NC(=O)c2ccc(SC)c(n2)CNC(=O)C[C@@H](/C=C/CCSC(=O)CCCCC)OC(=O)[C@H](C(C)C)NC1=O [Compound 155] ? middle level

Next compound up: C/C=C1\NC(=O)c2cc(SC)cc(n2)CNC(=O)C[C@@H](/C=C/CCSC(=O)CCCCCC)OC(=O)[C@H](C(C)C)NC1=O [Compound 151] middle level

C/C=C1\NC(=O)c2cc(SC)cc(n2)CNC(=O)C[C@@H](/C=C/CCS)OC(=O)[C@H](C)NC1=O [Compound 233] , same question. lower level

// query: C/C=C1\NC(=O)c2cccc(n2)CNC(=O)C[C@@H](/C=C/CCSC(=O)CCCCCCC)OC(=O)[C@H](C(C)(C)C)NC1=O [Compound 237] upper level

Ref: patent US10065990B2
